Reference source: paper PMC12133982

Record form. Attribute: pIC50. Fill in for each entry.
- TARGET_ENTITY: HLA-B1302 (Homo sapiens, UniProt P01889, A65T/A93T/A95T/D138N/D201E/D98Y/E176V/E204Q/E69M/E70A/G107R/K202T/L105A/L119W/N104T/N87E/Q94N/R106L/R155S/R169L/R180L/S101N/S121T/S35A/S48T/V127L/V36M/Y140L/Y91S)
- ASSAY: Competitive peptide binding assay, CIR-B1302
- CONDITION: HMy2.CIR-B1302 cells, reference Cy5-MMWYWGPSL, class from inhibition at 5 and 15 μM, flow cytometry MFI; read-out: Binding affinity with HLA-B1302
pIC50: −log10 of the molar value. Peptide text beside a SMILES is read from it.

[Q] Specify pIC50 for C[C@H](NC(=O)[C@H](CO)NC(=O)[C@@H](N)CCCCN)C(=O)NCC(=O)N[C@@H](Cc1ccccc1)C(=O)N1CCC[C@H]1C(=O)N[C@@H](Cc1ccccc1)C(=O)N[C@@H](CC(N)=O)C(=O)N[C@@H](CCCCN)C(=O)N[C@@H](Cc1c[nH]c2ccccc12)C(=O)O [Epitope Y306] (H-KSAGFPFNKW-OH; N-terminus and C-terminus assumed) and stop.
[A] > 5.30

[Q] For the compound CC(C)C[C@H](NC(=O)[C@H](CC(=O)O)NC(=O)[C@@H](NC(=O)[C@H](CC(=O)O)NC(=O)[C@@H](NC(=O)[C@H](Cc1c[nH]cn1)NC(=O)[C@H](CO)NC(=O)[C@H](CCC(=O)O)NC(=O)[C@H](C)N)C(C)C)[C@@H](C)O)C(=O)O [Epitope Y198] (H-AESHVDTDL-OH; N-terminus and C-terminus assumed) , give its reported pIC50.
[A] 4.82 to 5.30

[Q] Complete the entry with pIC50 for CSCC[C@H](NC(=O)[C@H](CO)NC(=O)[C@H](CCCNC(=N)N)NC(=O)[C@@H](NC(=O)[C@H](CCCNC(=N)N)NC(=O)[C@H](C)NC(=O)[C@@H](N)Cc1ccccc1)[C@@H](C)O)C(=O)N[C@@H](Cc1c[nH]c2ccccc12)C(=O)N[C@@H](CO)C(=O)N[C@@H](Cc1ccccc1)C(=O)O [Epitope Y47] (H-FARTRSMWSF-OH; N-terminus and C-terminus assumed)
[A] < 4.82
